test system: UACC-62 melanoma; test: NCI tumour cell line growth inhibition, 48 h
REPORTED METRIC: TGI

> print(dat)
                                    compound  observed.result
 1  COc1ccc(-c2nc3sccn3c2/C=C/C(=O)c2cc(OC)c(OC)c(OC)c2)cc1OC          5.55 µM
 2  COC(=O)c1ccc(-c2nc3cc(F)c(F)cc3nc2C#N)cc1          5.83 µM
 3  CCC12CCC(O)C1N(C)CCC2Sc1ccccc1 (stereo unspecified)         > 100 µM
 4  COc1ccc(/C=C\c2cc(OC)c(OC)c(OC)c2)cc1NC(=O)[C@@H](N)CO         > 100 µM
 5  Cc1ccc2c(/C=C/C(=O)c3cc(CN4CCOCC4)c(O)c4nc(C)ccc34)cc(CN3CCOCC3)c(O)c2n1          7.48 µM
 6       OCc1ccc(N(Cc2ccc(F)cc2)C2CCC2)cc1Cl         0.846 µM
 7    O=c1oc2ccccc2cc1-c1nc2ccccc2c(=O)[nH]1         > 100 µM
 8         O=c1[nH]nc(Cc2ccccc2)n1N=C1CCCCC1         > 100 µM
 9  Cc1ccc(C)c(-n2c(-c3ccc(Br)cc3)csc2=NC(=O)c2ccccc2F)c1         > 100 µM
10  COC(=O)C/C(C)=C/[C@@H](O)[C@H]1O[C@@H]2CC/C(Cl)=C/C/C=C(/C)[C@H](OC(C)=O)CC(=O)O[C@@H]1C2          1.67 µM
11  N#Cc1c(-c2cccc(Br)c2)cc(-c2ccc(Cl)cc2)nc1N          29.2 µM
12  N#CCN(Cc1ccccc1)[C@H]1CCC[C@]1(O)/C=C/c1ccc2c(c1)OCO2          37.9 µM
13  N#CC12CCC(O)C(CC1)C2=O (stereo unspecified)         > 100 µM
14  CCCCC1=C(C(=O)N2CCOCC2)C2(OCCO2)C1Cl (stereo unspecified)         > 100 µM
15  O=C(CSc1nc2ccc([N+](=O)[O-])cc2[nH]1)Nc1cccc(C(F)(F)F)c1          8.85 µM
16     COc1cccc(/C=C\c2cc(OC)c(OC)c(OC)c2)c1         > 100 µM
17                       COC(=O)CC(SCCO)SCCO         > 100 µM
18                 CCOC(=O)Nn1cnnc1Cc1ccccc1         > 100 µM
19    C=CCN1C(=O)/C(=C/c2ccccc2)N=C1SC/C=C/C         > 100 µM
20  N#Cc1c(Cl)cccc1Oc1ccc(S(=O)(=O)/N=C(\NO)Nc2ccc(Cl)cc2)cc1          29.3 µM
21  COC(=O)C1=C(O)C(C(=O)OC)[C@]2(O)[C@H](C(=O)OC)[C@H]1C[C@@H](c1ccc(Cl)cc1Cl)[C@H]2C(=O)OC (stereo partly specified)          35.3 µM
22  COC(=O)C1=C(C(=O)OC)C2(c3ccccc3)c3ccccc3C(=O)C1N2C1CCCCC1 (stereo unspecified)         > 100 µM
23  COc1ccc(C(=O)c2cc(OC)c(OC)c(OC)c2)cc1/C=C/C(=O)c1ccc(O)cc1          3.77 µM
24  c1ccc2c(c1)Sc1ccccc1N2CCCN1c2ccccc2Sc2ccccc21         > 100 µM
25  CC[N+](C)(C)c1ccc(C(=C2C=CC(=[N+](C)C)C=C2)c2ccc(N(C)C)cc2)cc1          29.7 µM
26  CCOC(=O)CCN1C(=O)c2ccc(NC(=O)C(=O)O)cc2S1(=O)=O         > 100 µM
27  Cc1c(C(=O)N/N=C/c2ccc(O)cc2)nnn1-c1ccnc2c(C(F)(F)F)cccc12         > 100 µM
28  Cc1cc(Cl)ccc1NC(=O)/C(Cc1nc2ccc(C(=O)c3ccccc3)cc2[nH]c1=O)=N/NC(=O)c1ccncc1         > 100 µM
29  CC(C)(C)c1ccc(Oc2ccc(C#N)c(C#N)c2)c(C(C)(C)C)c1         > 100 µM
30  CC(C)OP(=O)(OC(C)C)c1nn(-c2ccc([N+](=O)[O-])cc2)c(=N)s1         > 100 µM
31  CC1(C)C2CC1C(/C=N\OCC(=O)O)=CC2=O (stereo unspecified)         > 100 µM
32  O=S(=O)(O)c1cccc2ccc(O)c(N=Nc3ccc(S(=O)(=O)c4ccc(N=Nc5c(O)ccc6cccc(S(=O)(=O)O)c56)cc4)cc3)c12         > 100 µM
33        O=c1ccc(-c2ccc(-n3ccnc3)cc2)nn1CCO         > 100 µM
34                  CC(C)(C)C(=O)Nc1ccccc1Br         > 100 µM
35  COC1=C(OC)C(=O)c2cc(SC)c(=O)c(SC)cc2C1=O          4.45 µM
36  CC1=CCP(C(F)(F)F)P(C(F)(F)F)C1 (stereo unspecified)         > 100 µM
37   O=c1oc2ccccc2cc1-c1ccc([N+](=O)[O-])cc1         > 100 µM
38  C=CC[P@@]1(=O)O[C@H](c2ccccc2)C(C)N1C(C)C (stereo partly specified)         > 100 µM
39  N.N.NCCCCN.O=C([O-])CC(=O)[O-].O=C([O-])CC(=O)[O-].[Pt+4].[Pt+4]         > 100 µM
40  O=C1c2[nH]cc(CN[C@@H]3CCCN3)c2C(=O)c2c1c(O)c1ccccc1c2O          2.58 µM
41  CCOC(=O)c1nc2cc(F)c(F)cc2nc1NCc1cc(OC)c(OC)c(OC)c1         > 100 µM

---

system: U251 CNS

COMPOUND	GI50
C=C1C(=O)O[C@H]2[C@H]1CC/C(COC(=O)/C=C/c1cccnc1)=C\CC[C@@]1(C)O[C@@H]21	5740 nM
O=C1C(Cl)=C(Oc2ccccc2)C(=O)c2ccccc21	3570 nM
COC(=O)/C=C1\SC(=Nc2ccc(C(F)(F)F)cc2)N(CCc2c[nH]c3ccccc23)C1=O	1630 nM
CC(C)(C)[Si](C)(C)OC1[C@@H](O[Si](C)(C)C(C)(C)C)[C@@H](CNC(=O)NC(=O)NC(=O)CI)O[C@H]1n1cnc2c(NC(=O)Nc3ccccc3)ncnc21 (some centres not stated)	443 nM
CC1/C=C/C=C/CC/C=C/C=C/C=C/C=C/C(OC2OC(C)C(O)C(N)C2O)CC2OC(CC(O)C(O)CCC(O)CC(O)CC(O)CC(=O)OC(C)C(C)C1O)CC(O)C2C(=O)O (configuration not stated)	69.1 µg/mL
COC(=O)C/C(C)=C/[C@@H](O)[C@H]1O[C@@H]2CC/C(Cl)=C/C/C=C(/C)[C@H](OC(C)=O)CC(=O)O[C@@H]1C2	4550 nM
COc1ccc(/C=C/C(=O)/C=C(/C=C/c2ccc(OC)c(OC)c2)OB(F)F)cc1OC	807 nM

---

test system: T-47D breast; test: NCI tumour cell line growth inhibition, 48 h; in the data active means GI50 below about 0.43 µM; inactive means the rest
Outcome codes: active, inactive

COMPOUND	DISCRETE LABEL
CC(C)(C)[Si](C)(C)OC1[C@@H](O[Si](C)(C)C(C)(C)C)[C@@H](CNC(=O)NC(=O)NC(=O)CI)O[C@H]1n1cnc2c(NC(=O)Nc3ccccc3)ncnc21 (stereo not given in full)	inactive
O=C(CSc1nc2ccc([N+](=O)[O-])cc2[nH]1)Nc1cccc(C(F)(F)F)c1	inactive
Cc1cc(S(=O)(=O)Nc2nnc(-c3ccco3)c(-c3ccco3)n2)c(SCc2ccccc2)cc1Cl	inactive
COc1cccc(-c2nc(-c3ccc(NS(=O)(=O)c4ccccc4)cc3)[nH]c2-c2ccnc(Br)c2)c1	inactive
C[C@@H](Oc1cc(-c2cnn(C3CCNCC3)c2)cnc1N)c1c(Cl)ccc(F)c1Cl	inactive
CS(=O)(=O)c1ccc(Oc2nccc(-c3c(-c4ccc(F)cc4)ncn3C3CCNCC3)n2)cc1	inactive
O=C(Nc1cccc(NS(=O)(=O)c2ccc(F)cc2)c1)c1ccc(-c2ccccc2)cc1	inactive
NCCCn1c2c(c3ccccc3c1=O)C(=O)c1cc3c(cc1-2)OCO3	active
COc1cc(/C=C2\CC(C)CC3C2=NN(c2ccccc2)C3c2cc(OC)c(OC)c(OC)c2)cc(OC)c1OC (stereo not given)	inactive
Cc1ccc2c(/C=C/C(=O)c3cc(CN4CCOCC4)c(O)c4nc(C)ccc34)cc(CN3CCOCC3)c(O)c2n1	inactive
COc1ccc(-n2c(-c3ccc(NC(=O)CCCl)cc3)nnc2-c2cc(OC)c(OC)c(OC)c2)cc1	inactive
CCOC(=O)c1sc2ncn(Cc3cccc(Cl)c3)c(=O)c2c1C	inactive
C=C(CN1CCc2ccccc2C1)c1ccc(/C=C/C(=O)Nc2ccccc2N)cc1	inactive
CC1/C=C/C=C/CC/C=C/C=C/C=C/C=C/C(OC2OC(C)C(O)C(N)C2O)CC2OC(CC(O)C(O)CCC(O)CC(O)CC(O)CC(=O)OC(C)C(C)C1O)CC(O)C2C(=O)O (stereo not given)	inactive
COc1cc2c3c(n(CCCO)c(=O)c2cc1OC)-c1cc2c(cc1C3=O)OCO2	inactive
